Source: patent US12338220B2

# Test Target: CMV-polymerase (Human cytomegalovirus (strain AD169) (HHV-5) (Human herpesvirus 5), UniProt P08546)
# Assay Protocol: biochemical
# Condition Description: CMV-polymerase Biochemical IC50
Reported Endpoint: IC50
Remember to quote the unit after the number.

Use the examples below as a reference point.
> print(dat)
                               input.smiles  reported.endpoint  result.value
1  Cn1nc(C(=O)NCc2ccc(C#N)cc2)c2c1C(=O)N(CC1(S(=O)(=O)N3CC(O)C3)CC1)CC2               IC50          5 nM
2  CC(=O)NCC(C)(C)S(=O)(=O)C1(CN2CCc3c(C(=O)NCc4ccc(C#N)cc4)nn(C)c3C2=O)CC1               IC50          2 nM
3  CNC(=O)C(C)(C)S(=O)(=O)C1(CN2CCc3c(C(=O)NCc4ccc(Cl)cc4)nn(C)c3C2=O)CC1               IC50          5 nM

Then this compound:
# input Suppose we examine the compound CNCCOCC(C)(C)S(=O)(=O)C1(CN2CCc3c(C(=O)NCc4ccc(C#N)cc4)nn(C)c3C2=O)CC1 ; what IC50 value has been reported?
# output 1 nM
